Exercise: for every item that follows, state its recorded activation.
Tested on: TRPC4 beta (transient receptor potential cation channel C4), mouse
METHOD: activators of mouse TRPC4 channel, confirmation, cell-based, Fluo4 calcium, HEK293 TRPC4beta/mu-opioid, duplicates, 10 µM (AID 2426);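 further: percent rise of integrated ratio over buffer wells lacking compound which define 0%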
PROTOCOL CONDITIONS: Fluo4 calcium fluorescence, at 10 µM; stronger effect = higher value
The source made the active and inactive calls.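 How the source made its calls: active means fluorescence ratio normalized to control raised more than 50% in primary screen plus both repeat runs; inactive means the rest.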

Observe how each entry below is paired with its result.
**Q:** Param item = "CCn1c(N2CCN(C(=O)Nc3ccc(F)cc3)CC2)nc2ccccc21" ; retrieve measured activation.
**A:** 119% (active)

**Q:** Param item = CCOC(=O)C1CCCN(C(c2ccccn2)c2c(C)[nH]c3ccccc23)C1 (stereo unspecified) ; retrieve measured activation.
**A:** 208% (active)

**Q:** Param item = "CCOC(=O)C1(CCOc2ccccc2)CCN(Cc2ccc(OC)c(O)c2)CC1" ; retrieve measured activation.
**A:** 207% (active)

**Q:** Param item = "Cc1cc(Cl)cc(C)c1OCCCCn1ccnc1" ; retrieve measured activation.
**A:** 98% (active)

**Q:** Param item = "Cc1ccc(C)c(OCCCCCn2ccnc2)c1" ; retrieve measured activation.
**A:** 174% (active)

Alright, here's another compound for you.
**Q:** Param item = Fc1ccc(C(c2nnnn2Cc2cccs2)N2CCN(C3CCCCC3)CC2)cc1 (stereo unspecified) ; retrieve measured activation.
**A:** 251% (active)

Where do the numbers come from? From PubChem BioAssay.
